# TARGET_UNDER_TEST: CpD14
# TEST_DETAILS: intrinsic tryptophan fluorescence titration; UPLC hydrolysis assay; denaturing ESI-MS covalent adduct
MEASURED_QUANTITY: Kd (µM)
Just the number in µM, nothing appended.

Briefly, Kd measured for CC1=C[C@H](O/C=C2/C(=O)O[C@@H]3c4ccccc4C[C@H]23)OC1=O [(+)-GR24] : 203
